# Test system: T47D
# Protocol text: NCI tumour cell line growth inhibition, 48 h
The source made the active and inactive calls. Rule as the data show it: active = GI50 up to about 1.1 µM and inactive = higher.
Readout name: GI50

I have this compound here, C=CCCON(C(=O)OC(C)(C)C)C(C)(C)C , and I need its recorded GI50. > 100 µM (inactive)

// query: O=C1N[C@@H](COc2ccc(/C=N/c3ccc(CCc4ccc(/N=C/c5ccc(OC[C@@H]6COC(=O)N6)cc5)cc4)cc3)cc2)CO1 > 100 µM (inactive)

# repeat for O=c1[nH]nc(-c2ccccc2)n1Nc1ccccc1 > 100 µM (inactive)

Also CSC(=S)Nc1cccc(C)n1 ? > 100 µM (inactive)

// query: O=C1/C(=C/c2ccccc2)CCC/C1=C\c1ccc(O)c(CN2CCCCC2)c1 4.88 µM (inactive)

Item: O=C(CN1CCCCC1)CC(O)(C(F)(F)F)C(F)(F)F > 100 µM (inactive)

Try O=C1NC(N2CCCCC2)=N/C1=C\c1ccccc1O next. > 100 µM (inactive)

For NC(Cc1cc(I)c(Oc2ccc(O)c(I)c2)c(I)c1)C(=O)O (configuration not stated) then? 81.7 µM (inactive)

Can you handle CC(=O)Nc1cc2c(cc1O)CC[C@@H]1[C@@H]2CC[C@]2(C)[C@@H](O)CC[C@@H]12 next? 30.3 µM (inactive)

Subsequent entry: NC1=Nc2ccccc2Sc2nnc(-c3ccc(Cl)cc3)n21 > 100 µM (inactive)

Please give the result for CC1NCCC(CC(=O)O)C1CC(=O)O (configuration not stated) too. > 100 µM (inactive)

Another compound to look at: CO/C(N)=C(C#N)/N=C/c1ccccc1 > 100 µM (inactive)

Field entry: CC1CC/C(=C\c2ccc(Cl)cc2)c2nc(N)c(C#N)c(-c3ccc(Cl)cc3)c21 (configuration not stated) 55.3 µM (inactive)

// repeat for Cc1ccc(NNc2cc(=O)[nH]c(=O)[nH]2)cc1Cl and report 9.95 µM (inactive)

Try this compound next: O=C1CCCc2ccc3c(c21)CC1(Cc2cc4c(cc2C1)CCCC4)C3 5.38 µM (inactive)

CCCSc1ccc2[nH]c(N3C(=O)/C(=C/c4cc(OC)c(OC)c(OC)c4)N=C3c3ccccc3)cc2c1 , same question. 11 µM (inactive)

Same read-out for Cc1n[nH]c(=O)n1/N=C/c1ccco1 ? > 100 µM (inactive)

Same for N=c1oc2c(Cl)cc(Cl)cc2cc1C(=O)Nc1ccccn1 74.8 µM (inactive)

Same again, this time with O=C1c2ccccc2C(=O)N1[C@@H](Cc1ccccc1)C(=O)n1cccc1CO > 100 µM (inactive)

What about Cc1cc(C(F)(F)F)cc(-n2nc(NS(=O)(=O)c3cc(C)c(Cl)cc3S)nc2N)n1 ? 57.1 µM (inactive)

Can you handle N#CC1=C(N)OC2=C(CCCc3ccc([N+](=O)[O-])cc32)C1c1ccccc1 (configuration not stated) next? 6.24 µM (inactive)

Now consider CNc1nc(SC)nc2c1c(N)nn2C . > 100 µM (inactive)

Next compound: COc1ccc(C2c3cc4c(cc3OC(N3CCCCC3)C2C)OCO4)cc1 (configuration not stated) 71 µM (inactive)

Another compound to check: O=Cc1[nH]c(=O)[nH]c(=O)c1C(=O)O > 100 µM (inactive)

// query: c1ccc2c(c1)[nH]c1nc3cc(-c4ccc5nc6c(nc5c4)[nH]c4ccccc46)ccc3nc12 > 100 µM (inactive)

Another compound to look at: C#CCOC(=O)C=[N+]=[N-] > 10 µM (inactive)

Param item: Nc1nc(Cl)cc(NCC2(CO)CC(Cc3ccccc3)C2)n1 (configuration not stated) 1.34 µM (inactive)

Entry CC1=C2C(=O)c3ccccc3C(=O)[C@H]2[C@H]2CCO[C@H]2O1 please 34.7 µM (inactive)

Next up: COc1ccc2c(c1)N=C1CSC(c3cc([N+](=O)[O-])ccc3Cl)N1C2 (configuration not stated) 29.5 µM (inactive)

Query FC1(F)ON2CCc3ccccc3C2[C@H]1c1ccccc1 (some centres not stated) next 55.8 µM (inactive)

Now the same for COc1cc(C2=C(c3cc(OC)c4ccccc4c3OC)C(=O)c3ccccc3C2=O)c(OC)c2ccccc12 > 100 µM (inactive)

Consider next the compound CN(C)c1ccc(/C=N\NC(=O)Nc2cccc3ccccc23)cc1 in the same way. 2.73 µM (inactive)

Can you handle C/C=C\C(C)=C/C(C)C(=O)CC(O)CC1CC(=O)NC(=O)C1 (configuration not stated) next? 28.1 µM (inactive)

Next: CC1(C)OC(=S)N(c2ccccc2)C12C=Cc1ccccc1O2 (configuration not stated) 20.5 µM (inactive)

Check CC(=O)OC[C@@]12C[C@H]3C(=O)C(C)(C)C[C@H]3[C@]1(C)[C@@H](OC(C)=O)[C@]1(O)[C@H]([C@@H](OC(=O)c3ccccc3)[C@@H](C)[C@H]1OC(C)=O)[C@H]2OC(C)=O too. > 20 µM (inactive)

Follow-up item: COP(=O)(OC)C(C)(C)NC(=O)NC(F)(F)F > 100 µM (inactive)

Now consider O=C(CCn1ccnc1[N+](=O)[O-])NCCCn1ccnc1[N+](=O)[O-] . > 100 µM (inactive)

Request: COc1cccc(N/C(C)=C2/CCOC2=O)c1 > 10 µM (inactive)

Now try O=C(/C=C/c1ccc2c(c1)OCO2)NCc1ccco1 . 19.4 µM (inactive)

Another: Nc1[nH]nc2ccccc12 > 100 µM (inactive)

Same question for C#CC(O)/C=C/C(O)CCCC(O)CC#CC(O)C#CC(O)CCCC(O)/C=C/CCCC(=O)CCCCCCCCCCCCCCCC(O)C(O)C#CC(=O)O (configuration not stated) please. > 50 µM (inactive)

Another compound to check: Fc1ccccc1-c1nn2c(C34CC5CC(CC(C5)C3)C4)nnc2s1 > 100 µM (inactive)
